Numbers sourced from patent US20170022281A1.

Target: T1, cyno PRLR (Biacore antigen) (cyno, UniProt A0A2K5WXK1 25-234)
T1 construct: also called cyPRLR
T1 sequence: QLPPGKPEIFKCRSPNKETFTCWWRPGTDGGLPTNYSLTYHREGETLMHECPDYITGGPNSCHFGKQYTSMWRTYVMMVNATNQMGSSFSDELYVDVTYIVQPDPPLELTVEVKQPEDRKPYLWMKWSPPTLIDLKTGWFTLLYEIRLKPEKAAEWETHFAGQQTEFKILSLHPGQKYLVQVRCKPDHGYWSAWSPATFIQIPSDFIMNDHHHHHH
Test: SPR Biacore
reported-property: Kd (nM)
# output: bare number, implied unit nM

Inquiry: Any idea what its Kd is? The binder is Ab55 (antibody, human IgG1, kappa, V domains shown, humanized from Ab7 (back mutations on Ab39); G1; also called Ab4 HC.1a.2 and Ab4 LC.1a) VH: EVQLVQSGAEVKKPGSSVKVSCKASGYTFTSYWIHWVRQAPGQGLEWIGEIDPSDSYTNYNQKFKGRATLTVDRSSSTAYMELSSLRSEDTAVYYCGRSFFTNWFAYWGQGTLVTVSS VL: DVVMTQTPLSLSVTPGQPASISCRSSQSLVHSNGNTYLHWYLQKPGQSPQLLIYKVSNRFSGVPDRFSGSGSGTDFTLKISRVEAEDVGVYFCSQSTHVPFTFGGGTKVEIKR
Reply text: 0.59

Inquiry: State the recorded Kd for this entry: Ab8 (antibody, V domains shown, murine monoclonal, isotype G2b; also called murine Ab8) VH: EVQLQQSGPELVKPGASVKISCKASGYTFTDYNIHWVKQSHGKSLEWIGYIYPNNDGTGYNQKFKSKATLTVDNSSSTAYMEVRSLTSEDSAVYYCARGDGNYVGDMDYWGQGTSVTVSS VL: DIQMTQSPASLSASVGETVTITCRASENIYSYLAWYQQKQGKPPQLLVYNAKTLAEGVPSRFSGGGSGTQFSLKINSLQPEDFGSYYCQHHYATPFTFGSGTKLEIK
Reply text: 2.2

Inquiry: Name the reported Kd value associated with the binder Ab39 (antibody, human IgG1, kappa, V domains shown, humanized from Ab7; G1; also called Ab4 HC.1a and Ab4 LC.1a) VH: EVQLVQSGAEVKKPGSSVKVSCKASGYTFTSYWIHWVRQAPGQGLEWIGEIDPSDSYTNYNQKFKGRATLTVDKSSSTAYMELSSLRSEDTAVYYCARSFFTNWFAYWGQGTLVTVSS VL: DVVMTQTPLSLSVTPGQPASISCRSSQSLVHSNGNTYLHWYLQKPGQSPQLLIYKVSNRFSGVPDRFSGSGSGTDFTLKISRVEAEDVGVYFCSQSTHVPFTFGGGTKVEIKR
Reply text: 4.01

Inquiry: Entry under review: Ab36 (antibody, human IgG1, kappa, V domains shown, humanized from Ab7; G1; also called Ab4 HC.1 and Ab4 LC.1a) VH: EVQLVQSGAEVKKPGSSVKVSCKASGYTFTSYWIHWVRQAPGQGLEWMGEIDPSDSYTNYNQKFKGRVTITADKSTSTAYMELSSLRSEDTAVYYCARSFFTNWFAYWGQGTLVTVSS VL: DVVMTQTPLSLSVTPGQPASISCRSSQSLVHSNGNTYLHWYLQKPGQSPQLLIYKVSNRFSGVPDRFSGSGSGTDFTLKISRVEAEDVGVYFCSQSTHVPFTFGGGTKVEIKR . Reported Kd?
Reply text: 8.51

Inquiry: # Kd lookup, item Ab6 (antibody, V domains shown, murine monoclonal, isotype G1; also called murine Ab6) VH: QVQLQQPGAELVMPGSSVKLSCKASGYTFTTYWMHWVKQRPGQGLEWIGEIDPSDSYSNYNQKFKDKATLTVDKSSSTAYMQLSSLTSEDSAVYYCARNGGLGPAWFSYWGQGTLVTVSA VL: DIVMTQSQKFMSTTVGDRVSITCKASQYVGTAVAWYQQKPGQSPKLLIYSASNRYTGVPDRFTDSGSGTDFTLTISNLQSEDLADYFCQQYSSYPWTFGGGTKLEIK
Reply text: 0.807
